system: ascitic form of a transplantable mouse liver tumor (TLT); test: Survival (increase of life span) of mice bearing the intraperitoneally transplanted ascitic TLT tumor; type: in vivo, NMRI male mice; conditions: cytotoxic drug combined with dietary FOS or inulin
assay_metric: therapeutic effect (character of chemotherapy potentiating effect)

CC[C@]1(O)C[C@H]2CN(CCc3c([nH]c4ccccc34)[C@@](C(=O)OC)(c3cc4c(cc3OC)N(C=O)[C@H]3[C@@](O)(C(=O)OC)[C@H](OC(C)=O)[C@]5(CC)C=CCN6CC[C@]43[C@@H]65)C2)C1 [Oncovin, vincristine sulphate]: additive
O=P1(N(CCCl)CCCl)NCCCO1 (stereo not shown) [Endoxan, cyclophosphamide]: additive
COc1cccc2c1C(=O)c1c(O)c3c(c(O)c1C2=O)C[C@@](O)(C(=O)CO)C[C@@H]3O[C@H]1C[C@H](N)[C@H](O)[C@H](C)O1: additive
